Values from the supplement of paper PMC12494721

# Test system: Klebsiella aerogenes DSM 30053
# ASSAY: fold change of Cadaverine concentration vs plate DMSO controls (fold change (ratio)); higher = more amine produced, active = hit call of the paper (significant change in both replicates, either direction)
# CONDITION: incubation time: 27 h, anaerobic, 37 °C
Counter-ions that a name gives are not always drawn.
Could you please report measured fold change of Cadaverine concentration for the items listed next?
Write no unit; give the number alone.

// CS(=O)(=O)c1ccc([C@@H](O)[C@@H](CO)NC(=O)C(Cl)Cl)cc1 [Thiamphenicol] (20 µM) : fold change of Cadaverine concentration value = 0.957

Kindly note the recorded fold change of Cadaverine concentration for CCN(CC)C(=O)N1CCN(C)CC1 [Diethylcarbamazine citrate] (20 µM) , which is 1

Short answer for CCCCc1ccc2[nH]c(NC(=O)OC)nc2c1 [Parbendazole] (20 µM) : fold change of Cadaverine concentration was 1.03

# compound CCCNC(=O)NS(=O)(=O)c1ccc(Cl)cc1 [Chlorpropamide] (20 µM) ; its fold change of Cadaverine concentration = 1.1

Reported fold change of Cadaverine concentration ( CCCCOC(=O)c1ccc(O)cc1 [Butylparaben] (20 µM) ) = 0.984

====

# Test system: Klebsiella aerogenes DSM 30053
# ASSAY: fold change of Putrescine concentration vs plate DMSO controls (fold change (ratio)); higher = more amine produced, active = hit call of the paper (significant change in both replicates, either direction)
# CONDITION: incubation time: 27 h, anaerobic, 37 °C
Structures can show the parent of a compound that is named as a salt.
METRIC: fold change of Putrescine concentration
Answer with the value's number alone.

Test item O=C(N[C@H](CO)[C@H](O)c1ccc([N+](=O)[O-])cc1)C(Cl)Cl [Chloramphenicol] (20 µM) ; Klebsiella aerogenes DSM 30053; reported fold change of Putrescine concentration was 0.512

The compound CC1(C)S[C@@H]2[C@H](NC(=O)[C@H](N)c3ccccc3)C(=O)N2[C@H]1C(=O)O [Ampicillin trihydrate] (20 µM) , when measured on Klebsiella aerogenes DSM 30053, yielded fold change of Putrescine concentration of 1.03

fold change of Putrescine concentration on Klebsiella aerogenes DSM 30053 for NNC(=O)c1ccncc1 [Isoniazid] (20 µM) is 0.991

Result for C[C@H]1COc2c(N3CCN(C)CC3)c(F)cc3c(=O)c(C(=O)O)cn1c23 [Levofloxacin] (20 µM) , tested on Klebsiella aerogenes DSM 30053, fold change of Putrescine concentration: 0.657

Noted fold change of Putrescine concentration for OC[C@H]1O[C@@H](n2cnc3cncnc32)[C@H](O)[C@@H]1O [Nebularine] (20 µM) , tested on Klebsiella aerogenes DSM 30053: 1.01

Form field fold change of Putrescine concentration for item CC(C)C(=O)c1c(C(C)C)nn2ccccc12 [Ibudilast] (20 µM) on Klebsiella aerogenes DSM 30053: 0.984

fold change of Putrescine concentration for Klebsiella aerogenes DSM 30053 with input CN1CCC(OC(c2ccccc2)c2ccccc2)CC1 [Diphenylpyraline hydrochloride] (20 µM) equals 0.995

Form: item c1ccc2cc3c(ccc4ccccc43)cc2c1 [Benz[a]anthracene] (20 µM) ; test system Klebsiella aerogenes DSM 30053; fold change of Putrescine concentration: 0.901

Klebsiella aerogenes DSM 30053 data for CC(=O)Nc1nnc(S(N)(=O)=O)s1 [Acetazolamide] (20 µM) ; its fold change of Putrescine concentration: 1.06

Readout fold change of Putrescine concentration for CC(C(=O)O)c1cccc(C(=O)c2ccccc2)c1 (stereo unspecified) [Ketoprofen] (20 µM) , test system Klebsiella aerogenes DSM 30053, was 1.01

# value of fold change of Putrescine concentration, Klebsiella aerogenes DSM 30053, item N=C(N)c1ccc(OCCCCCOc2ccc(C(=N)N)cc2)cc1 [Pentamidine isethionate] (20 µM) = 0.914

Observed fold change of Putrescine concentration, Klebsiella aerogenes DSM 30053, CCC[C@@H]1C[C@@H](C(=O)N[C@@H]([C@H]2O[C@H](SC)[C@H](OP(=O)(O)O)[C@@H](O)[C@H]2O)[C@H](C)Cl)N(C)C1 [Clindamycin Phosphate] (20 µM) : 1.01

Item CC(=O)OC(C)OC(=O)C(C)c1ccc(-c2ccccc2)c(F)c1 (stereo unspecified) [Flurbiprofen axetil] (20 µM) ; assay system Klebsiella aerogenes DSM 30053; fold change of Putrescine concentration reported as 1

# OCCN(CCO)c1nc(N2CCCCC2)c2nc(N(CCO)CCO)nc(N3CCCCC3)c2n1 [Dipyridamole] (20 µM) with Klebsiella aerogenes DSM 30053: fold change of Putrescine concentration is 0.51

Log: Klebsiella aerogenes DSM 30053, compound Cc1c(C(=O)NN2CCCCC2)nn(-c2ccc(Cl)cc2Cl)c1-c1ccc(Cl)cc1 [Rimonabant] (20 µM) , fold change of Putrescine concentration = 1.02

Response field fold change of Putrescine concentration (Klebsiella aerogenes DSM 30053) for item COc1cc(C)c(/C=C/C(C)=C/C=C/C(C)=C/C(=O)O)c(C)c1C [Acitretin] (20 µM) : 0.996
